Counter-ions that a name gives are not always drawn.
measured endpoint: melting point

In one line, give reported melting point of the entry Brc1ccccc1SCCCN1CCN(c2cccc3[nH]ccc23)CC1 (as salt: oxalate) .
163 to 166 °C

In one line, give reported melting point of the entry Clc1cccc(Cl)c1SCCN1CCN(c2cccc3[nH]ccc23)CC1 (as salt: oxalate) .
130 to 133 °C (dec.)

In one line, give reported melting point of the entry Clc1ccc(SCCN2CCN(c3cccc4[nH]ccc34)CC2)cc1Cl (as salt: oxalate) .
140 to 141 °C

In one line, give reported melting point of the entry Fc1ccc(OCCCCN2CCN(c3cccc4[nH]ccc34)CC2)c(Br)c1 (as salt: oxalate) .
218 to 220 °C

In one line, give reported melting point of the entry Cc1cccc(Cl)c1SCCCCN1CCN(c2cccc3[nH]ccc23)CC1 (as salt: oxalate) .
199 to 210 °C

In one line, give reported melting point of the entry Clc1ccccc1OCCCN1CCN(c2cccc3[nH]ccc23)CC1 .
189 to 199 °C

In one line, give reported melting point of the entry Brc1ccccc1OCCCN1CCN(c2cccc3[nH]ccc23)CC1 (as salt: oxalate) .
206 to 208 °C

----------
- experimental target: human cloned dopamine D4.2-receptors (Homo sapiens, UniProt P21917, DEL265-296)
- Construct: expressed in transfected cells; host or cells: CHO cells
- Sequence (P21917 with tags, fused parts or gaps DEL265-296): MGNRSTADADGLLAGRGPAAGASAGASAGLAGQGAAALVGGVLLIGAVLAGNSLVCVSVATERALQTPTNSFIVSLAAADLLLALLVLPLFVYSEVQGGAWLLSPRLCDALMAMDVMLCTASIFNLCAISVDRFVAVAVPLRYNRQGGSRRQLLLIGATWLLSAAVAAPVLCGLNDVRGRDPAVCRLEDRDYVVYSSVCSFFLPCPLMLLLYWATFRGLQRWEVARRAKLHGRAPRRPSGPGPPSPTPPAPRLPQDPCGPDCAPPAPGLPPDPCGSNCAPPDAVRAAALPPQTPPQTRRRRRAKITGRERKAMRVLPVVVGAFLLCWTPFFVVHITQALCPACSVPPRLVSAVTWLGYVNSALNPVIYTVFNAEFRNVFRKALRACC
- method summary: Inhibition of the binding of 3H-YM-09151-2 to human dopamine D4 receptors
- condition description: at 100 nM; [3H]YM-09151-2 0.06 nM; CHO-cell membranes, human D4.2
- Experimental: Inhibition of the Binding of ^3H-YM-09151-2 to Human Dopamine D4 Receptors By this method, the inhibition by drugs of the binding of [^3H]YM-09151-2 (0.06 nM) to membranes of human cloned dopamine D4.2-receptors expressed in CHO-cells is determined in vitro. Method modified from NEN Life Science Products, Inc., technical data certificate PC2533-10/96.
Reported inhibition at 0.1 µM by item:
// return numeric value only (unit: %, not printed)

# count of solved cases: 3
> print(dat)
                                   compound                       experimental.target     measured.endpoint  value.reported
1  FC(F)(F)c1ccc(SCCCN2CCN(c3cccc4[nH]ccc34)CC2)cc1 [Compound 5aw]  human cloned dopamine D4.2-receptors (Homo sapiens, UniProt P21917, DEL265-296)  inhibition at 0.1 µM              99
2  Clc1cccc(SCCCN2CCN(c3cccc4[nH]ccc34)CC2)c1 [Compound 5ao]  human cloned dopamine D4.2-receptors (Homo sapiens, UniProt P21917, DEL265-296)  inhibition at 0.1 µM             102
3  CC(C)c1ccccc1SCCCCN1CCN(c2cccc3[nH]ccc23)CC1 [Compound 5bb]  human cloned dopamine D4.2-receptors (Homo sapiens, UniProt P21917, DEL265-296)  inhibition at 0.1 µM              94

Could you now consider this next compound?
In one line, give reported inhibition at 0.1 µM of the entry Cc1ccc(SCCCN2CCN(c3cccc4[nH]ccc34)CC2)cc1C [Compound 5as] .
99

----------
- experimental target: human cloned dopamine D4.2-receptors (Homo sapiens, UniProt P21917, DEL265-296)
- method summary: Inhibition of the binding of 3H-YM-09151-2 to human dopamine D4 receptors
- condition description: [3H]YM-09151-2 0.06 nM; membranes of CHO-cells expressing human D4.2
measured endpoint: IC50 (nM)
// return numeric value only (unit: nM, not printed)

# count of solved cases: 3
> print(dat)
                                   compound  value.reported
1  Clc1ccccc1OCCCN1CCN(c2cccc3[nH]ccc23)CC1              92
2  Fc1cc(Br)cc(F)c1OCCCN1CCN(c2cccc3[nH]ccc23)CC1              39
3  Fc1cc(F)c(OCCN2CCN(c3cccc4[nH]ccc34)CC2)c(Br)c1              13

In one line, give reported IC50 of the entry Cc1cccc(Cl)c1SCCCCN1CCN(c2cccc3[nH]ccc23)CC1 [Compound 4f] .
3

----------
Reported inhibition at 0.05 µM by item:
- experimental target: cloned human 5-HT1A-receptors (Homo sapiens)
- Construct: expressed in transfected cells; host or cells: HeLa cells (HA7)
- Sequence (P08908 whole entry): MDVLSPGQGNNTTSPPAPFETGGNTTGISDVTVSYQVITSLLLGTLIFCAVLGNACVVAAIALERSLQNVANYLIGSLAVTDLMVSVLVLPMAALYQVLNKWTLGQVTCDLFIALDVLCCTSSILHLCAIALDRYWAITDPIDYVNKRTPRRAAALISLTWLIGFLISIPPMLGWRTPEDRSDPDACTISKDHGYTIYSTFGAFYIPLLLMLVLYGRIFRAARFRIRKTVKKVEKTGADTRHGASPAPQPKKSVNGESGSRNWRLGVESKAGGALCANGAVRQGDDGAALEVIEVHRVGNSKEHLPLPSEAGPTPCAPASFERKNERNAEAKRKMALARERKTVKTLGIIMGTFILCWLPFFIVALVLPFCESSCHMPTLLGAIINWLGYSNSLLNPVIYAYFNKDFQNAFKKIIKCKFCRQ
- method summary: Inhibition of 3H-5-CT binding to human 5-HT1A receptors
- condition description: at 50 nM; transfected HeLa cells (HA7); 15 minutes at 37° C., pH 7.7
// return numeric value only (unit: %, not printed)

> print(dat)
                                        mol  value.reported
1  Clc1ccc(Cl)c(SCCN2CCN(c3cccc4[nH]ccc34)CC2)c1              92
2  C=CCc1cccc(Cl)c1OCCN1CCN(c2cccc3[nH]ccc23)CC1              92

In one line, give reported inhibition at 0.05 µM of the entry N#Cc1cccc(OCCCCN2CCN(c3cccc4[nH]ccc34)CC2)c1 .
92

----------
- experimental target: human cloned dopamine D4.2-receptors (Homo sapiens, UniProt P21917, DEL265-296)
- Construct: expressed in transfected cells; host or cells: CHO cells
- method summary: Inhibition of the binding of 3H-YM-09151-2 to human dopamine D4 receptors
- condition description: at 100 nM; [3H]YM-09151-2 0.06 nM; CHO-cell membranes, human D4.2
measured endpoint: inhibition at 0.1 µM (%)
// return numeric value only (unit: %, not printed)

# count of solved cases: 8
> print(dat)
                                        mol  value.reported
1  Cc1ccc(SCCN2CCN(c3cccc4[nH]ccc34)CC2)c(C)c1              83
2  CC(C)c1ccccc1SCCCN1CCN(c2cccc3[nH]ccc23)CC1              94
3  FC(F)(F)Oc1ccc(SCCCN2CCN(c3cccc4[nH]ccc34)CC2)cc1              98
4  N#Cc1cccc(OCCCCN2CCN(c3cccc4[nH]ccc34)CC2)c1              95
5  Clc1ccc(Cl)c(OCCCCN2CCN(c3cccc4[nH]ccc34)CC2)c1              97
6  Clc1cccc(SCCCCN2CCN(c3cccc4[nH]ccc34)CC2)c1              98
7  COc1ccccc1OCCCCN1CCN(c2cccc3[nH]ccc23)CC1              80
8  c1ccc(SCCCCN2CCN(c3cccc4[nH]ccc34)CC2)cc1             100

In one line, give reported inhibition at 0.1 µM of the entry Clc1ccc(SCCCN2CCN(c3cccc4[nH]ccc34)CC2)cc1Cl .
95

In one line, give reported inhibition at 0.1 µM of the entry COc1ccc(SCCCCN2CCN(c3cccc4[nH]ccc34)CC2)cc1OC .
107

In one line, give reported inhibition at 0.1 µM of the entry Clc1cccc(SCCN2CCN(c3cccc4[nH]ccc34)CC2)c1 .
83

In one line, give reported inhibition at 0.1 µM of the entry C=CCc1cccc(Cl)c1OCCN1CCN(c2cccc3[nH]ccc23)CC1 .
88
